Target: hSTING-R232 (Homo sapiens (Human), UniProt Q86WV6, H232R)
Sequence (Q86WV6 140-379 H232R): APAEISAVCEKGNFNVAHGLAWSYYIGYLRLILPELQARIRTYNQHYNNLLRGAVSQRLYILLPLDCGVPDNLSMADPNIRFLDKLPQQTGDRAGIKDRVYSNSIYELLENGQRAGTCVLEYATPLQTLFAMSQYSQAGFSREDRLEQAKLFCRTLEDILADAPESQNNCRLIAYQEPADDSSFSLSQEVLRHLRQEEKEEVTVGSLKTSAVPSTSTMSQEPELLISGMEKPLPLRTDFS
Assay: STING differential scanning fluorimetry (DSF) assay, WT human STING
Details: WT (R232) human STING aa140-379, net shift in melting temperature

{"molecule": "O=C(O)Cn1c2ccccc2c2ccc(Cl)c(Cl)c21 [Compound 209]", "experimentalSystem": "hSTING-R232 (Homo sapiens (Human), UniProt Q86WV6, H232R)", "WT_DSF_hSWAT Tm Shift (° C.)": "A (“A” < 0° C.)"}
{"molecule": "O=C(O)Cn1c2cc(Nc3ccccc3)ccc2c(=O)c2ccc(Cl)c(Br)c21 [Compound 206]", "experimentalSystem": "hSTING-R232 (Homo sapiens (Human), UniProt Q86WV6, H232R)", "WT_DSF_hSWAT Tm Shift (° C.)": "D (“D” > 7° C.)"}
{"molecule": "CC1(C)CCC=C(c2ccc3c(=O)c4ccc(Cl)c(Cl)c4n(CC(=O)O)c3c2)C1 [Compound 157]", "experimentalSystem": "hSTING-R232 (Homo sapiens (Human), UniProt Q86WV6, H232R)", "WT_DSF_hSWAT Tm Shift (° C.)": "C (“C” = 2-7° C,)"}
{"molecule": "COc1c(Cl)ccc2c(=O)c3ccc(SC4CCCCC4)cc3n(CC(=O)O)c12 [Compound 233]", "experimentalSystem": "hSTING-R232 (Homo sapiens (Human), UniProt Q86WV6, H232R)", "WT_DSF_hSWAT Tm Shift (° C.)": "D (“D” > 7° C.)"}
{"molecule": "Cc1ccc2c(=O)c3ccc(Cl)cc3n([C@@H](C)C(=O)O)c2c1 [Compound 180]", "experimentalSystem": "hSTING-R232 (Homo sapiens (Human), UniProt Q86WV6, H232R)", "WT_DSF_hSWAT Tm Shift (° C.)": "A (“A” < 0° C.)"}
{"molecule": "CC(C)c1ccc2c(=O)c3ccc(C#N)c(Cl)c3n(CC(=O)O)c2c1 [Compound 145]", "experimentalSystem": "hSTING-R232 (Homo sapiens (Human), UniProt Q86WV6, H232R)", "WT_DSF_hSWAT Tm Shift (° C.)": "A (“A” < 0° C.)"}
{"molecule": "O=C(O)Cn1c2cc(NCCN3CCc4ccccc43)ccc2c(=O)c2ccc(Cl)c(Cl)c21 [Compound 150]", "experimentalSystem": "hSTING-R232 (Homo sapiens (Human), UniProt Q86WV6, H232R)", "WT_DSF_hSWAT Tm Shift (° C.)": "C (“C” = 2-7° C,)"}
{"molecule": "CCc1ccc2c(=O)c3ccc(Cl)c(OC)c3n(CC(=O)O)c2c1 [Compound 294]", "experimentalSystem": "hSTING-R232 (Homo sapiens (Human), UniProt Q86WV6, H232R)", "WT_DSF_hSWAT Tm Shift (° C.)": "D (“D” > 7° C.)"}
{"molecule": "COc1c(Cl)ccc2c(=O)c3ccc(Nc4ccccc4OC(F)(F)F)cc3n(CC(=O)O)c12 [Compound 286]", "experimentalSystem": "hSTING-R232 (Homo sapiens (Human), UniProt Q86WV6, H232R)", "WT_DSF_hSWAT Tm Shift (° C.)": "D (“D” > 7° C.)"}
{"molecule": "O=C(Cn1c2ccccc2c(=O)c2ccc(Cl)c(Cl)c21)NO [Compound 353]", "experimentalSystem": "hSTING-R232 (Homo sapiens (Human), UniProt Q86WV6, H232R)", "WT_DSF_hSWAT Tm Shift (° C.)": "A (“A” < 0° C.)"}
{"molecule": "CSc1c(Cl)ccc2c(=O)c3ccc(Nc4ncccn4)cc3n(CC(=O)O)c12 [Compound 276]", "experimentalSystem": "hSTING-R232 (Homo sapiens (Human), UniProt Q86WV6, H232R)", "WT_DSF_hSWAT Tm Shift (° C.)": "D (“D” > 7° C.)"}
{"molecule": "CC1CCC(Nc2ccc3c(=O)c4ccc(Cl)c(Cl)c4n(CC(=O)O)c3c2)CC1 (centres unmarked) [Compound 140]", "experimentalSystem": "hSTING-R232 (Homo sapiens (Human), UniProt Q86WV6, H232R)", "WT_DSF_hSWAT Tm Shift (° C.)": "C (“C” = 2-7° C,)"}
{"molecule": "COc1c(Cl)ccc2c(=O)c3ccc(Nc4cnccn4)cc3n(CC(=O)O)c12 [Compound 263]", "experimentalSystem": "hSTING-R232 (Homo sapiens (Human), UniProt Q86WV6, H232R)", "WT_DSF_hSWAT Tm Shift (° C.)": "D (“D” > 7° C.)"}
{"molecule": "O=C(O)Cn1c2ccccc2c(=O)c2ccc(Cl)c(-c3cccnc3)c21 [Compound 334]", "experimentalSystem": "hSTING-R232 (Homo sapiens (Human), UniProt Q86WV6, H232R)", "WT_DSF_hSWAT Tm Shift (° C.)": "C (“C” = 2-7° C,)"}
{"molecule": "C=CCOc1c(Cl)ccc2c(=O)c3ccc(C)cc3n(CC(=O)O)c12 [Compound 311]", "experimentalSystem": "hSTING-R232 (Homo sapiens (Human), UniProt Q86WV6, H232R)", "WT_DSF_hSWAT Tm Shift (° C.)": "D (“D” > 7° C.)"}
{"molecule": "CCN(C)c1c(Cl)ccc2c(=O)c3ccc(C)cc3n(CC(=O)O)c12 [Compound 307]", "experimentalSystem": "hSTING-R232 (Homo sapiens (Human), UniProt Q86WV6, H232R)", "WT_DSF_hSWAT Tm Shift (° C.)": "D (“D” > 7° C.)"}
